Attribution: ChEMBL document CHEMBL3865810

Test: Therapeutic index, ratio of LD50 for BALB/c mouse to ED50 for erythrocytic stage of chloroquine-resistant Plasmodium berghei ANKA infected in BALB/c mouse
Details: read-out: Ratio LD50/ED50
property.label: selectivity ratio

{"test.smiles": "COc1ccc(OC)c(Nc2ccnc3cc(Cl)ccc23)c1", "selectivity ratio": 359}

Now examine the next entry.
In: For `Fc1ccc(Nc2ccnc3cc(Cl)ccc23)cc1` , what is its reported selectivity ratio?
Out: 388
